Cited source: ChEMBL document CHEMBL2331512

# test.summary: Partition coefficient, log D of the compound at pH 7.4
# Type: physicochemical
# condition.description: octanol/water
experimental.endpoint: logD
I only need the number, thanks.

Solved cases below.
CC(C)=CCc1c(O)cc(O)c2c1O[C@]13C(=C[C@@H]4C[C@H]1C(C)(C)OC3(CC=C(C)C)C4=O)C2=O ... 3.9
CC(C)=CCc1c(O)cc(O)c2c1O[C@@]13C(=C[C@H]4C(=O)C1(CC=C(C)C)OC[C@@H]3[C@H]4COC(C)C)C2=O ... 3.6

Enquiry: Can you share its logD? I mean this compound: `CC(C)=CCC12OC[C@@H]3C[C@@H](C=C4C(=O)c5c(O)cc6c(c5O[C@]431)C=CC(C)(C)O6)C2=O`
Return: 4.3

Enquiry: Can you share its logD? I mean this compound: `CC(C)=CCc1c(O)cc(O)c2c1O[C@@]13C(=C[C@H]4C(=O)C1(CC=C(C)C)OC[C@@H]3[C@H]4CN(CCO)CCO)C2=O`
Return: 2

Enquiry: Can you share its logD? I mean this compound: `CC(C)=CCc1c(O)cc2c(c1O)C(=O)C1=C[C@H]3C(=O)C4(CC=C(C)C)OC[C@H]([C@H]3CN(C)C)[C@]14O2`
Return: 2.4
